- Tested on: PPARg:RXRa (NR concentration 180 nM, RXRa partner concentration 90 nM)
- experimental_protocol: PBM binding z-score (relative to random genomic background probes); higher = stronger binding; sequences stand for … in GC…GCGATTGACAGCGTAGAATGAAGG
Here, each record is paired with measured PBM binding z-score data.
reported_property: PBM binding z-score

• TAGCCTAGGTCCGATCGGGCCAGTATACGCTATA = -0.184
• TCGAGTAGGTTACCACTGGGGCATTCAGCTTTCT = 0.354
• CTCGAAAGGTCGGTTGAGGTGATTATACGGATAA = 0.571
• AGCACGAGGGCAATGAGTTGATAGCACGGGTGGC = 0.928
• CGAACTAGGTCATCCATGACAGTGAATACATTGA = 7.88
• TCTCGGAGGACACGAAGGTCAGAACTTTCCAGAG = 0.527
• CCTACTGGGCCATTCAGAGGTGATTGATCATATG = 0.504
• CCTACTGGGCCACGAAAAGTCATTGATTCAGTGA = 1.63
• ATCGAAAGGTCGACGAGGTGAGTGTACACCGTTT = 2.9
• TAGCCTAGGTCATTCAGGGGCCAGTTTAGAAAGC = 1.98
• ATCGAGAGGTCGAGGTGAGTATAGAGAAAGGGAA = 2.19
• CCGACTCGGGCAAAGGTTACCATACTCAGTACGA = 8.25
• CCAGACAGGTGAGAAGGTAACTGAGCCTCGATTA = 0.397
• CCTTACGGGTCAAGGTCATAGCACGGGTGGTACG = 6.03
• CCAGACAGGTGAAAAGGTAACTCAGCCTCGATTA = 1.27
• AAATGTAGGTTAGCTGGGGTCATTCAGACTAGGC = 6.42
• CGCGAAAGGTCGTGCTCAGGTGAGTATACCAAAC = 3.65
• GCTGCTAGGTCCACTGATGGTCAGCTAAAGCTCG = -0.592
• CGAACTGGGTCAGAACAGGACAGTGAAGGATGAT = 4.95
• CAGCGTAGGTCAGGGCCAGTATAGGAGGAACGTT = 0.896
• GCTAGTTGGTCAGTAAAAGGTCCCACACCGGTCG = -0.0473
• TCTTCTAGATCAATAGAGGTTAAGAAAGTGCGCT = 0.156
• TGTCAAAGTTCAAAGGAAACGTAAGTATCCACAC = 7.64
• TCTGCTAGGTCAGTTGGTCAGGTAACGAGCTGCC = 0.452
• TTACCAAGATGAAGGTCGTTGATCCCTCTGTAGA = 0.406
• CCTACTGGGCCAGGAAAGGTCATTGATTCAGTGA = 1.95
• CCTGCTAGGTCGTGGTCAGCTAATCTACAGTATG = -0.0367
• TTACCAAGGTGTAGGTCGTTGATCCCTCTGTAGA = -0.0136
• CCTTACGGGTCACTGTCAGGTTATAGCATTTGGA = 3.83
• CCGAGTGGGGCAGAAAGGTTACCATACCATCCGG = 1.76
• CTCGAAGGGTCGTGCTCAGGTGAGTATACCAAAC = 0.441
• TTACCAAGGTGAGCCGAGGTCGTTGATCCAACTC = 0.623
• TCTTGTAGATCAAGCAGGTTAATAAAGCCTGAGT = -0.267
• AAAATGAGGTTATTAAGATCAGGGAATTGCGGTC = 2.05
• GCTCCTAGGTCAACTGATGGTCAGCTAAAGCTCG = 2.53
• CGAAGGAGGGCATGAGTTGATAGCAAATGCCGAT = 1.13
• TGAATGAGGTGATAAGATCAGGGAACGTTGCAAA = 0.727
• ATCGAAAGATCGACGAGGTGAGTATACACCGTTT = 0.902
